- Assay Target: mouse PPARγ (Mus musculus, UniProt P37238)
- Protocol Notes: Luciferase transcriptional reporter gene assay, pFA-PPARγ-LBD in BHK21 cells
- Measurement Conditions: Gal4-PPARγ-LBD
Result Type: pEC50
Give bare numbers, as −log10 of the molar value.

1) CCOC(Cc1ccc2c(c1)cc(C)n2Cc1csc(-c2ccccc2)n1)C(=O)O (racemic) [Example 44] | 5.57
2) CCO[C@@H](Cc1ccc2c(ccn2Cc2nc(-c3ccccc3OC)oc2C)c1)C(=O)O [Example 8] | 6.25
3) CCO[C@@H](Cc1ccc2c(ccn2Cc2nc(-c3ccc(C(F)(F)F)cc3)oc2C)c1)C(=O)O [Example 18] | 6.89
4) CCO[C@@H](Cc1ccc2c(ccn2Cc2nc(-c3ccc(F)c(C)c3)oc2C)c1)C(=O)O [Example 25] | 7.30

Q. Answer with reported pEC50 of CCOC(Cc1ccc2c(c1)c(C)cn2Cc1nc(-c2ccc(F)c(C)c2)oc1C)C(=O)O (racemic) [Example 39]
A. 7.70

----------
- Assay Target: UniProtKB P37238
- Sequence (P37238 204-505): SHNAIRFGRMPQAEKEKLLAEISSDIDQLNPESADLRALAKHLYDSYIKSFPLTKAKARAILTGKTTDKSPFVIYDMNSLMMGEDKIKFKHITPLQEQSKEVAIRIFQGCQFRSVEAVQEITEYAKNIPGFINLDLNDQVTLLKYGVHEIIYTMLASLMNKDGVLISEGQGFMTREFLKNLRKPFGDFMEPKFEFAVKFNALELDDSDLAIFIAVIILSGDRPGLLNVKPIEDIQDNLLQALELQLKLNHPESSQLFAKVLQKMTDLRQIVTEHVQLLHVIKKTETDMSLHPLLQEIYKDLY
- Protocol Notes: PPARγ radioligand binding assay (GST-PPARγ-LBD fusion protein, scintillation proximity)
- Measurement Conditions: SPA
Result Type: pIC50
Give bare numbers, as −log10 of the molar value.

1) CCOC(Cc1ccc2c(c1)cc(C)n2Cc1csc(-c2ccccc2)n1)C(=O)O (racemic) | 5.85
2) CCO[C@@H](Cc1ccc2c(ccn2Cc2nc(-c3ccccc3OC)oc2C)c1)C(=O)O | 6.40
3) CCO[C@@H](Cc1ccc2c(ccn2Cc2nc(-c3ccc(F)c(C)c3)oc2C)c1)C(=O)O | 7.30
4) CCO[C@@H](Cc1ccc2c(ccn2Cc2nc(-c3ccc(C(F)(F)F)cc3)oc2C)c1)C(=O)O | 6.74

Turning to the following compound.
Q. Tell me pIC50 of CCOC(Cc1ccc2c(c1)c(C)cn2Cc1nc(-c2ccc(F)c(C)c2)oc1C)C(=O)O (racemic) when tested on UniProtKB P37238.
A. 6.96

----------
- Assay Target: UniProt:Q07869
- Protocol Notes: Luciferase transcriptional reporter gene assay, pFA-PPARα-LBD in BHK21 cells
- Measurement Conditions: Gal4-PPARα-LBD
pEC50: −log10 of the molar value.
Decide by pEC50: equal to or exceeding 7 means yes, less means no.

Take a look at these entries with their results.
1) CCO[C@@H](Cc1ccc2c(ccn2Cc2nc(-c3ccc(F)c(C)c3)oc2C)c1)C(=O)O [Example 25] | yes
2) CCO[C@@H](Cc1ccc2c(ccn2Cc2nc(-c3ccccc3OC)oc2C)c1)C(=O)O [Example 8] | no
3) CCOC(Cc1ccc2c(c1)c(C)cn2Cc1nc(-c2ccc(F)c(C)c2)oc1C)C(=O)O (racemic) [Example 39] | no
4) CCO[C@@H](Cc1ccc2c(ccn2Cc2nc(-c3ccccc3Cl)oc2C)c1)C(=O)O [Example 5] | no
5) CCOC(Cc1ccc2c(c1)cc(C)n2Cc1csc(-c2ccccc2)n1)C(=O)O (racemic) [Example 44] | no

Now consider a different compound.
Q. Form field: pEC50 at least 7? Entry: CCO[C@@H](Cc1ccc2c(ccn2Cc2nc(-c3cc(OC)cc(OC)c3)oc2C)c1)C(=O)O [Example 21]
A. yes

----------
- Assay Target: human PPARα (Homo sapiens, UniProt Q07869)
- Sequence (Q07869 167-468 limits assumed): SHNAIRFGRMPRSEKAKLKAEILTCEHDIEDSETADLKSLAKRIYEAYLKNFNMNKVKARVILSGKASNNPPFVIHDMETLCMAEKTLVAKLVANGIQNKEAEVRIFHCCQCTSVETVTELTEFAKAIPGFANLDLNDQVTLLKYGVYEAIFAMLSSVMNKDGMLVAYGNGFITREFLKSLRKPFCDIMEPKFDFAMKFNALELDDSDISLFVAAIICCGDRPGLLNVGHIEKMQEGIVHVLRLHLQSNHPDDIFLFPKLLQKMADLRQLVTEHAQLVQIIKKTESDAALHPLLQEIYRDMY
- Protocol Notes: PPARα radioligand binding assay (GST-PPARα-LBD fusion protein)
Result Type: IC50

1) CCO[C@@H](Cc1ccc2c(ccn2Cc2nc(-c3ccccc3Cl)oc2C)c1)C(=O)O [Example 5] | 240 nM
2) CCO[C@@H](Cc1ccc2c(ccn2Cc2nc(-c3ccc(C(F)(F)F)cc3)oc2C)c1)C(=O)O [Example 18] | 30 nM

Pending molecule:
Q. Give IC50 only, for CCO[C@@H](Cc1ccc2c(ccn2Cc2nc(-c3cc(OC)cc(OC)c3)oc2C)c1)C(=O)O [Example 21] , using human PPARα (Homo sapiens, UniProt Q07869) data.
A. 30 nM

----------
- Assay Target: human PPARα (Homo sapiens, UniProt Q07869)
- Sequence (Q07869 167-468 limits assumed): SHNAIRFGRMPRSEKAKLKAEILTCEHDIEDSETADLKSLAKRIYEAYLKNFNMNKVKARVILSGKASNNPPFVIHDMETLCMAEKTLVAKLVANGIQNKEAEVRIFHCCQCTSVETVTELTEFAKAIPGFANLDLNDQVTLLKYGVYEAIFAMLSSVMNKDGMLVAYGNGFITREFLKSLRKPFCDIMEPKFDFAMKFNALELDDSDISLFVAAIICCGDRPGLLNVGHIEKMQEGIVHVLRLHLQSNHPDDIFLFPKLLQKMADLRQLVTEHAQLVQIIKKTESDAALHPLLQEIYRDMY
- Protocol Notes: PPARα radioligand binding assay (GST-PPARα-LBD fusion protein)
Kindly state IC50 for each of the entries shown.
Answers are plain numbers, in nM.

The following compounds have reported results that may help.
1) CCO[C@@H](Cc1ccc2c(ccn2Cc2nc(-c3ccc(F)c(C)c3)oc2C)c1)C(=O)O | 120
2) CCO[C@@H](Cc1ccc2c(ccn2Cc2nc(-c3ccccc3OC)oc2C)c1)C(=O)O | 280
3) CCOC(Cc1ccc2c(c1)cc(C)n2Cc1csc(-c2ccccc2)n1)C(=O)O (racemic) | 1640

Okay, next one:
Q. Indicate the recorded IC50 value for this compound: CCOC(Cc1ccc2c(c1)c(C)cn2Cc1nc(-c2ccc(F)c(C)c2)oc1C)C(=O)O (racemic)
A. 60
